Where these numbers come from: ChEMBL document CHEMBL1201862

Record form. Attribute: EC50. Fill in for each entry.
- Assay Overview: cells
- Type: functional, cell-based
Active and inactive are the calls of the source.

Solved entries:
> print(dat)
                                   molecule  readout             test.value
1    CCOC(=O)c1[nH]cnc1N=Nc1c(O)ccc2ccccc12     EC50  > 350 µM (not active)
2     Cc1cc(C)n(-c2nc3ccccc3c(=O)n2OCC#N)n1     EC50       28.9 µM (active)
3  CCCC(=O)NC(c1ccc(C(C)C)cc1)c1ccc2cccnc2c1O (stereo not given)     EC50        3.8 µM (active)
4   CCOC(=O)c1cc2sccc2n1CC(=O)Nc1ccc(OC)cc1     EC50  > 350 µM (not active)

I am curious: what EC50 value has been reported for O=C(N/N=C\c1cc(Br)ccc1O)c1ccc(S(=O)(=O)N2CCCCC2)cc1 ?
> 350 µM (not active)

* * *

- Assay Overview: inhibitors of SNCA 5'UTR-driven reporter translation, confirmation, H4 neuroglioma cells, luminescence (AID 1988)
- Assay type: functional, cell-based
Active and inactive are the calls of the source.
Readout: EC50

Solved entries:
> print(dat)
                                   compound  readout         test.value
1  C#CCOc1ccc(C2C3=C(O)OCC3=Nc3cc4c(cc32)OCO4)cc1OC (centres undefined)     EC50  < 0.1 µM (active)
2  CCOc1ccc(/C=C2/Sc3ccc(C(=O)N4CCN(C(=O)c5ccco5)CC4)cc3N(C)C2=O)cc1OC     EC50   97.7 µM (active)
3     COc1ccc(OC)c(Nc2cc(C)nc3ccc(C)cc23)c1     EC50   6.31 µM (active)

// moving on: another record for EC50
I am curious: what EC50 value has been reported for Cc1cccc(CS(=O)(=O)c2ncc(Cl)c(C(=O)NCc3ccccc3)n2)c1 ?
12 µM (active)

* * *

Record form. Attribute: EC50. Fill in for each entry.
- Target: Peroxisome proliferator-activated receptor gamma/Nuclear receptor coactivator 3 (Homo sapiens, UniProt P37231)
- Sequence (P37231 whole entry): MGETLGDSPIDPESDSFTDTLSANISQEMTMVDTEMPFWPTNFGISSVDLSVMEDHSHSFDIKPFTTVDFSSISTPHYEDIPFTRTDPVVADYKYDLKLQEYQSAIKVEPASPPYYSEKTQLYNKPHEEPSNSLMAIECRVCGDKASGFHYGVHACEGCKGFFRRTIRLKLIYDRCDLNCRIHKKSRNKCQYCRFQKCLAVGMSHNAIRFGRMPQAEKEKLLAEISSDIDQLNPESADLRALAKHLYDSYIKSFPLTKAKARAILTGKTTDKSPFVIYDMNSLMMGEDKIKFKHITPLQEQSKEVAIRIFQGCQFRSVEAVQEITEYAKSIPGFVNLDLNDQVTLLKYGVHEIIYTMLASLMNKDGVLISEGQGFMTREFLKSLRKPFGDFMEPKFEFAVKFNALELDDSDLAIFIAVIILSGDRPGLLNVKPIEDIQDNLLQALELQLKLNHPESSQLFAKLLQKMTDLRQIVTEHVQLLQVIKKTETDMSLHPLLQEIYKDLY
- Sequence (Q9Y6Q9 whole entry, further chain): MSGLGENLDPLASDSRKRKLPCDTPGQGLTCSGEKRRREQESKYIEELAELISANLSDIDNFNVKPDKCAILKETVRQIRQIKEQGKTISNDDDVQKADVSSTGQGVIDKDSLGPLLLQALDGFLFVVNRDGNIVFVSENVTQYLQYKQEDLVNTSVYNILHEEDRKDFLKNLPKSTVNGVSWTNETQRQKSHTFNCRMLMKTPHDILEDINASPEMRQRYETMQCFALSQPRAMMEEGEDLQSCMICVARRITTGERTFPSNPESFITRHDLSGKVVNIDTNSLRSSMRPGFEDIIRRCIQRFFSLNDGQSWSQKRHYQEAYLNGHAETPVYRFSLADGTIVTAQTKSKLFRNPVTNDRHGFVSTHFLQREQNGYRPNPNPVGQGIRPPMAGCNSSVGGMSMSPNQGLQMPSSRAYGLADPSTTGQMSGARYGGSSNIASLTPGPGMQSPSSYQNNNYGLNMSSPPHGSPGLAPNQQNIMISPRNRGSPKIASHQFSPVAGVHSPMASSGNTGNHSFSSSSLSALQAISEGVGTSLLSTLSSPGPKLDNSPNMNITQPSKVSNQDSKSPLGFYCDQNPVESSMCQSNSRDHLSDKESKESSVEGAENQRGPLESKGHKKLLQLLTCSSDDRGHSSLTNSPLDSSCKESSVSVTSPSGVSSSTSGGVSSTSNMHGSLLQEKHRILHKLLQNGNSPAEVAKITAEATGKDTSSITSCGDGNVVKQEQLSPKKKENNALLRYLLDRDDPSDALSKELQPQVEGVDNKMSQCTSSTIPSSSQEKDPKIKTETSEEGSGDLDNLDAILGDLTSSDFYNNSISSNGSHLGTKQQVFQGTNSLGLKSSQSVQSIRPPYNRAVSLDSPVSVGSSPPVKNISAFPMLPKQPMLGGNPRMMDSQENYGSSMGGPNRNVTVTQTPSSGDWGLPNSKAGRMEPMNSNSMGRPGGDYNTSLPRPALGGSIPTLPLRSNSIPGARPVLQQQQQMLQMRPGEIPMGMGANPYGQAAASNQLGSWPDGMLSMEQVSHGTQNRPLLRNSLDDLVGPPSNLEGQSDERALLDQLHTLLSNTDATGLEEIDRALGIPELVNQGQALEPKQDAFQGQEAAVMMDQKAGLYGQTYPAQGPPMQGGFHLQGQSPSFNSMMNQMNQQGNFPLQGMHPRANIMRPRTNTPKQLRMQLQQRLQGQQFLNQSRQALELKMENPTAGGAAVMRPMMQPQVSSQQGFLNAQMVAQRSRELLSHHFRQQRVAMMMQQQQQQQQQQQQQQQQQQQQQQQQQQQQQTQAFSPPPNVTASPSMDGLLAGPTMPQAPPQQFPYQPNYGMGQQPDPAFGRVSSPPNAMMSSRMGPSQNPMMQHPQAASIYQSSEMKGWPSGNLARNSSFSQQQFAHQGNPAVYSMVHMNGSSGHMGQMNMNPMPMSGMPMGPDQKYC
- Assay Overview: TR-FRET dose response biochemical High Throughput Screening assay for agonists of the steroid receptor coactivator 3 (SRC-3) recruitment by the peroxisome proliferator-activated receptor gamma (PPAR gamma): non-selective agonists. [Related pubchem assays: 1301 (Confirmation screen.), 1048 (Primary screen.)]
- Assay type: functional

Solved entries:
> print(dat)
                           structure.smiles              test.value
1  CSc1oc(-c2ccccc2)nc1S(=O)(=O)c1ccc(C)cc1  > 79.4 µM (not active)
2  Cc1cc2ccccc2n1CCNC(=O)c1ccc(S(=O)(=O)N2CCCCC2)cc1    13.6 µM (not active)
3         Cn1c(=S)[nH]c2scc(-c3cccs3)c2c1=O  > 79.4 µM (not active)
4    C=CCSC1=Nc2cc(OC)c(OC)cc2C2=NC(=O)CN12  > 79.4 µM (not active)
5       CSc1c(SCc2ccccc2)cnn(Cc2ccccc2)c1=O  > 79.4 µM (not active)

// moving on: another record for EC50
I am curious: what EC50 value has been reported for COc1cc(-n2c(=S)[nH]c3ccc(C)cc3c2=O)c(Cl)cc1Cl ?
> 79.4 µM (not active)
